Let's go through some IC50 measurements on p70S6K (h) (Homo sapiens (Human), UniProt P23443) together.
Sequence (P23443 whole entry): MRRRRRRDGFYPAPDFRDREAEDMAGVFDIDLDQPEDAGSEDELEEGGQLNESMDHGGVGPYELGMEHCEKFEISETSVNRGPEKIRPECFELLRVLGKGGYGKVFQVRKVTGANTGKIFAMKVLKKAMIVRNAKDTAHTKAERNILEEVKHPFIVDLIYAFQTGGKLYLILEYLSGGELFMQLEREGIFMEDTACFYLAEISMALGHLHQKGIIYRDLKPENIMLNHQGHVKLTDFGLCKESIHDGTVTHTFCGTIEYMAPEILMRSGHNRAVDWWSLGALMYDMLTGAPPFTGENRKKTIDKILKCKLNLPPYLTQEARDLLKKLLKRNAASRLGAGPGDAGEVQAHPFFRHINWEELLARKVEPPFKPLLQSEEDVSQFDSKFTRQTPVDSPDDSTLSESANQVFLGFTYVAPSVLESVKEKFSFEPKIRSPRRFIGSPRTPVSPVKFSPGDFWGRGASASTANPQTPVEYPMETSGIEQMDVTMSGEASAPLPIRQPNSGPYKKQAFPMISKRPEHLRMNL
Readout Name: IC50 (nM)

Solved cases (8 shown):
[[record]]
smiles_text = "C[C@@H](Nc1ncc2cc(-c3ncnc4[nH]ncc34)ccc2n1)c1cccc(NS(C)(=O)=O)c1"
unit_abbreviation = "nM"
measured_value = 23

[[record]]
smiles_text = "CS(=O)(=O)Nc1cccc(CNc2ncc3cc(-c4ncnc5[nH]ncc45)ccc3n2)c1"
unit_abbreviation = "nM"
measured_value = 67

[[record]]
smiles_text = "COc1cccc(CNc2ncc3cc(-c4ncnc5[nH]ncc45)ccc3n2)c1"
unit_abbreviation = "nM"
measured_value = 118

[[record]]
smiles_text = "C[C@@H](Nc1ncc2cc(-c3ncnc4[nH]ccc34)ccc2n1)c1ccccc1"
unit_abbreviation = "nM"
measured_value = 57

[[record]]
smiles_text = "Fc1cccc(CNc2ncc3cc(-c4ncnc5[nH]ncc45)ccc3n2)c1"
unit_abbreviation = "nM"
measured_value = 18

[[record]]
smiles_text = "C[C@@H](Nc1ncc2cc(-c3ncnc4[nH]cnc34)ccc2n1)c1ccccc1"
unit_abbreviation = "nM"
measured_value = 167

[[record]]
smiles_text = "Fc1ccc(CNc2ncc3cc(-c4ncnc5[nH]ncc45)ccc3n2)cc1"
unit_abbreviation = "nM"
measured_value = 55

[[record]]
smiles_text = "c1ccc(CN(C[C@H]2COCCN2)c2ncc3cc(-c4ncnc5[nH]ncc45)ccc3n2)cc1"
unit_abbreviation = "nM"
measured_value = 25


A. C[C@@H](Nc1ncc2cc(-c3ncnc4[nH]ncc34)ccc2n1)c1ccc(F)cc1
B. Fc1ccc(CNc2ncc3cc(-c4ncnc5[nH]ncc45)ccc3n2)cc1F
C. C[C@@H](Nc1ncc2cc(-c3ccnc4[nH]ccc34)ccc2n1)c1ccccc1
With regard to IC50, arrange the entries in ascending order, please. List the labels in the requested order.
A, B, C

====

Assay: in vivo cassette mouse model: brain and plasma concentrations following oral dosing
Conditions: brain, male CD-1 mice, 2.5 mg/kg per compound, read-out: (b) Brain conc. at 3 hours
Readout Name: concentration at 3 h (nM)

Solved cases (4 shown):
[[record]]
molecule = "C[C@@H](Nc1ncc2cc(-c3ncnc4[nH]ncc34)ccc2n1)c1ccc(F)c(F)c1 [Example 19]"
unit_abbreviation = "nM"
measured_value = 2420

[[record]]
molecule = "C[C@@H](Nc1ncc2cc(-c3ncnc4[nH]ncc34)ccc2n1)c1ccccc1F [Example 28]"
unit_abbreviation = "nM"
measured_value = 1070

[[record]]
molecule = "C[C@@H](Nc1ncc2cc(-c3ncnc4[nH]ncc34)ccc2n1)c1ccccc1 [Example 1]"
unit_abbreviation = "nM"
measured_value = 1600

[[record]]
molecule = "C[C@@H](Nc1ncc2cc(-c3ncnc4[nH]ncc34)ccc2n1)c1cccc(F)c1 [Example 3]"
unit_abbreviation = "nM"
measured_value = 1680


1. C[C@@H](Nc1ncc2cc(-c3ncnc4[nH]ncc34)ccc2n1)c1ccc(F)cc1 [Example 4]
2. Fc1cccc(CNc2ncc3cc(-c4ncnc5[nH]ncc45)ccc3n2)c1 [Example 10]
# argmax over concentration at 3 h for candidates 1 and 2 Lab log: write the label of the selected item as the result.
1

====

Assay: in vivo cassette mouse model: brain and plasma concentrations following oral dosing
Settings: brain and plasma, male CD-1 mice, 2.5 mg/kg per compound, read-out: (b) Brain:Plasma ratio at 3 hours
Readout Name: Kp at 3 h

[[record]]
smiles_text = "C[C@@H](Nc1ncc2cc(-c3ncnc4[nH]ncc34)ccc2n1)c1ccc(F)cc1"
measured_value = 2.2

[[record]]
smiles_text = "C[C@@H](Nc1ncc2cc(-c3ncnc4[nH]ncc34)ccc2n1)c1cccc(F)c1"
measured_value = 3.7

[[record]]
smiles_text = "C[C@@H](Nc1ncc2cc(-c3ncnc4[nH]ncc34)ccc2n1)c1ccccc1"
measured_value = 2.7


I. C[C@@H](Nc1ncc2cc(-c3ncnc4[nH]ncc34)ccc2n1)c1ccccc1F
II. C[C@@H](Nc1ncc2cc(-c3ncnc4[nH]ncc34)ccc2n1)c1ccc(F)c(F)c1
III. Fc1cccc(CNc2ncc3cc(-c4ncnc5[nH]ncc45)ccc3n2)c1
# rank_down: sort by Kp at 3 h, max first List the labels in the requested order.
II, I, III
(II: 4, I: 2.6, III: 1.7)
